The measurements presented in this section are drawn from PubChem BioAssay (NCI).

Catalogue of molecules with associated TGI
Test system: A549 NSCLC
Assay: NCI tumour cell line growth inhibition, 48 h

MOLECULE: c1ccc(-n2nc3ccc4nonc4c3n2)cc1
TGI: > 100 µM
//
MOLECULE: O=C(c1ccccc1)N1C2CCC1C(C(F)(F)F)=C2C(F)(F)F
TGI: > 100 µM
//
MOLECULE: COC1C=COC2(C)Oc3c(C)c(O)c4c(O)c(c(/C=N/N5CCN(N)CC5)c(O)c4c3C2=O)NC(=O)C(C)=CC=CC(C)C(O)C(C)C(O)C(C)C(OC(C)=O)C1C (stereo not given)
TGI: > 100 µM
//
MOLECULE: O=C(N/N=C/c1cc(Cl)cc(Cl)c1[O-])c1ccccc1O.O=C(N/N=C/c1cc(Cl)cc(Cl)c1[O-])c1ccccc1O.[Zn+2]
TGI: 13.1 µM
//
MOLECULE: CC(SC(=S)N1CCOCC1)C(=O)Nc1nnc(-c2ccccc2)o1 (stereo not given)
TGI: > 100 µM
//
MOLECULE: CC(=O)Nc1cc2c3c(c1)CCCN3CCC2
TGI: > 100 µM
//
MOLECULE: COc1cc(S(=O)(=O)Nc2ccc(-c3csc(N)n3)cc2)ccc1Cl
TGI: 39.6 µM
//
MOLECULE: COc1ccc(C(SCC(N)C(=O)O)(c2ccccc2)c2ccccc2)cc1 (stereo not given)
TGI: > 100 µM
//
MOLECULE: COc1cc(OC)c(/C=C\c2ccnc3ccccc23)c(OC)c1
TGI: 18.6 µM
//
MOLECULE: COC1=CCC=C(C[C@@H]2NCCc3cc(OC)c(OC)cc32)C1
TGI: > 100 µM
//
MOLECULE: Nc1nc2c(s1)CCc1c-2c(Br)n(Cc2ccccc2)c1Br
TGI: > 100 µM
//
MOLECULE: CC(=O)NC(CCC(=O)C=[N+]=N)C(=O)O (stereo not given)
TGI: > 100 µM
//
MOLECULE: CCCCCCCCN(CCCCCCCC)CCCCCCNc1cc(OC)cc2cccnc12
TGI: 34.8 µM
//
MOLECULE: CC(NC(=O)c1ccccc1)NC(=O)C(C)C(=O)Nc1ccccc1 (stereo not given)
TGI: > 100 µM
//
MOLECULE: COC(CC1(/C=C/O[Si](C(C)C)(C(C)C)C(C)C)C(=O)N(C)c2ccccc21)OC (stereo not given)
TGI: > 100 µM
//
MOLECULE: COC(=O)/C=C(\C(=O)OC)c1c2c3c(cc(OC)c(OC)c3c3ccccc13)CCN2C
TGI: > 100 µM
//
MOLECULE: Cc1cc(O)ccc1C1=NN(c2ccc(S(C)(=O)=O)cc2)C(=O)CC1
TGI: > 100 µM
//
MOLECULE: CC(=O)CSc1c(-c2ccccc2)c(=O)n(-c2ccccc2)c(=S)n1-c1ccccc1
TGI: > 100 µM
//
MOLECULE: COc1ccc2c(c1)[n+](=O)c(C(=O)c1ccco1)c(C(F)(F)F)n2[O-]
TGI: 16.6 µM
//
MOLECULE: C=C(C)[C@@]1(OC(=O)c2cc([N+](=O)[O-])cc([N+](=O)[O-])c2)C[C@@H]2CCCC[C@@H]21
TGI: > 100 µM

---

System: TK-10 renal
Experiment: NCI tumour cell line growth inhibition, 48 h

COMPOUND: CCCCCCCCN(CCCCCCCC)CCCCCCNc1cc(OC)cc2cccnc12
GI50: 20.3 µM

COMPOUND: CCCCCCCCCCCCCC1=NCCN1CCO
GI50: 4.75 µM

COMPOUND: Cl.Fc1c[c-]c(-c2ccccn2)c(F)c1.[Pt].c1ccc(P(c2ccccc2)C([PH+](c2ccccc2)c2ccccc2)[PH+](c2ccccc2)c2ccccc2)cc1
GI50: 2.67 µM

COMPOUND: CC1COc2c(N3CCN(C)CC3)c(F)cc3c(=O)c(C(=O)O)cn1c23 (stereo not given)
GI50: > 100 µM

COMPOUND: Cc1cc(O)ccc1C1=NN(c2ccc(S(C)(=O)=O)cc2)C(=O)CC1
GI50: 80.5 µM

COMPOUND: CCOC(=O)c1c(C)n2c(=O)cc(C)c3c(O)c(O)cc1c32
GI50: 5.47 µM

COMPOUND: Cc1ccc(C(SCC(N)C(=O)O)(c2ccc(C)cc2)c2ccc(C)cc2)cc1 (stereo not given)
GI50: 8.31 µM

COMPOUND: COc1ccc(C(=O)c2cc(OC)c(OC)c(OC)c2)cc1/C=C/C(=O)c1ccc(OC)c(OC)c1
GI50: 4.16 µM

COMPOUND: Cc1ccc2ncnc(N(CC(C)C)CC(C)C)c2c1
GI50: 19.4 µM

COMPOUND: O=[N+]([O-])c1ccccc1N/N=C\c1c[nH]c2ccccc12
GI50: 15 µM
